The entries below are paired with their reported Kb.
# Target Or System: Histamine H4 receptor (Homo sapiens, UniProt Q9H3N8)
# Sequence (Q9H3N8 whole entry): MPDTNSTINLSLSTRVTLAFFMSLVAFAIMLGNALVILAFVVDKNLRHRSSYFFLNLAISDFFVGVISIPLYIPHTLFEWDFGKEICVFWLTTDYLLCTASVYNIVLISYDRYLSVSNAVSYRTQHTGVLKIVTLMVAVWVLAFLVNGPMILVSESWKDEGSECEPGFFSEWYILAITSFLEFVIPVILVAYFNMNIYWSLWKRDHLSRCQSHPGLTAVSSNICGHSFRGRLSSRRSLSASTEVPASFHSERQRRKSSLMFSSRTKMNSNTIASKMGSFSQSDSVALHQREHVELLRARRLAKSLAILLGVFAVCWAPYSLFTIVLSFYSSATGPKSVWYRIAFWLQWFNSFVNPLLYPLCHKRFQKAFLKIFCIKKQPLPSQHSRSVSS
# Method Summary: Antagonistic activity at human histamine H4 receptor in SK-N-MC cells by inhibition of forskolin-stimulated cAMP-mediated reporter gene activity
# Format: functional, cell-based
# Test Settings: read-out: pA2 (converted)
Number only, in nM; omit the unit.

Give Histamine H4 receptor (Homo sapiens, UniProt Q9H3N8) Kb for "CN1CCN(C(=O)c2cc3cc(F)ccc3[nH]2)CC1"
20

Give Histamine H4 receptor (Homo sapiens, UniProt Q9H3N8) Kb for "CN1CCN(C(=O)c2nc3cc(Cl)ccc3[nH]2)CC1"
20

Give Histamine H4 receptor (Homo sapiens, UniProt Q9H3N8) Kb for "CN1CCN(C(=O)c2cc3c(Cl)c(Cl)ccc3[nH]2)CC1"
6.31

Give Histamine H4 receptor (Homo sapiens, UniProt Q9H3N8) Kb for "Cc1cc(C)c2[nH]c(C(=O)N3CCN(C)CC3)cc2c1"
31.6

Give Histamine H4 receptor (Homo sapiens, UniProt Q9H3N8) Kb for "Cc1c(F)ccc2[nH]c(C(=O)N3CCN(C)CC3)nc12"
15.8

Give Histamine H4 receptor (Homo sapiens, UniProt Q9H3N8) Kb for "CN1CCN(C(=O)c2cc3cccc(N)c3[nH]2)CC1"
7.94

---
Give Histamine H4 receptor (Homo sapiens, UniProt Q9H3N8) Kb for "CN1CCN(C(=O)c2cc3cc(Cl)cc(Cl)c3[nH]2)CC1"
10

Give Histamine H4 receptor (Homo sapiens, UniProt Q9H3N8) Kb for "CN1CCN(C(=O)c2cc3cc(O)ccc3[nH]2)CC1"
79.4

Give Histamine H4 receptor (Homo sapiens, UniProt Q9H3N8) Kb for "CN1CCN(C(=O)c2cc3cc(Br)ccc3[nH]2)CC1"
15.8

Give Histamine H4 receptor (Homo sapiens, UniProt Q9H3N8) Kb for "CN1CCN(C(=O)c2cc3cccc(Br)c3[nH]2)CC1"
126

Give Histamine H4 receptor (Homo sapiens, UniProt Q9H3N8) Kb for "CN1CCN(C(=O)c2nc3c(F)c(F)ccc3[nH]2)CC1"
79.4

Give Histamine H4 receptor (Homo sapiens, UniProt Q9H3N8) Kb for "Cc1cc(Cl)c2[nH]c(C(=O)N3CCN(C)CC3)cc2c1"
50.1

Give Histamine H4 receptor (Homo sapiens, UniProt Q9H3N8) Kb for "Cc1cccc2[nH]c(C(=O)N3CCN(C)CC3)nc12"
25.1

---

The entries below are paired with their reported half-life.
# Method Summary: In vitro half life in rat liver microsomes
# Type: ADME, Microsome
Number only, in min; omit the unit.

Query: half-life; subject: CN1CCN(C(=O)c2cc3cc(Cl)ccc3[nH]2)CC1 [JNJ-7777120]
4.5

Let's switch to this molecule now.
Query: half-life; subject: "CN1CCN(C(=O)c2nc3cc(Cl)ccc3[nH]2)CC1"
12

---

# Method Summary: Half life in rat administered with 2 mg/kg, iv
# Assay type: ADME, organism-based
# Set-up: dose 2 mg/kg, route intravenous
# Test Settings: in vivo
Observable: half-life (min)
Number only, in min; omit the unit.

Query: half-life; subject: "CN1CCN(C(=O)c2cc3cc(Cl)sc3[nH]2)CC1"
6

---

The entries below are paired with their reported half-life.
# Method Summary: In vitro half life in human liver microsomes
# Type: ADME, Microsome
Number only, in min; omit the unit.

Use these answered entries as a reference point.
Query: half-life; subject: "CN1CCN(C(=O)c2nc3cc(Cl)ccc3[nH]2)CC1"
100

Query: half-life; subject: "CN1CCN(C(=O)c2cc3cc(Cl)sc3[nH]2)CC1"
53

Let's switch to this compound now.
Query: half-life; subject: "CN1CCN(C(=O)c2cc3cc(Cl)ccc3[nH]2)CC1"
28

The reported measurements were obtained from ChEMBL document CHEMBL1141189.
